Below, each of the binders is paired with its reported kon value.
Target: T1, recombinant human ErbB3 monomeric protein (cleaved rhErbB3) (human, UniProt P21860 20-643, limits assumed)
T1 construct: Monomer made by protease cleavage of the Fc fusion; also called Monomeric ErbB3
Test: SPR Biacore 37 C; supernatant antibody captured on anti-human Fc, cleaved rhErbB3 injected

- binder: "Sh24C05-15 (antibody, human IgG1, kappa, V domains shown, Humanized, human IgG1/kappa) VH: EVQLVESGGGLVKPGGSLRLSCAASGFTFSDYAMSWVRQAPGKGLEWVSTISDGGTYTYYPDNVKGRFTISRDNAKNSLYLQMNSLRAEDTAVYYCAREWGDYDGFDYWGQGTLVTVSS VL: DIQMTQSPSSLSASVGDRVTITCRASQEISGYLSWLQQKPGGAIKRLIYAASTLDSGVPSRFSGSGSGSDYTLTISSLQPEDFATYYCLQYDSYPYTFGQGTKLEIKR"
  kon [M⁻¹ s⁻¹]: "2.67e+06"
- binder: "Sh24C05-17 (antibody, human IgG1, kappa, V domains shown, Humanized, human IgG1/kappa) VH: QVQLVESGGGVVQPGRSLRLSCAASGFTFSDYAMSWVRQAPGKGLEWVATISDGGTYTYYPDNVKGRFTISRDNSKNTLYLQMSSLRAEDTAVYYCAREWGDYDGFDYWGQGTLVTVSS VL: DIQMTQSPSSLSASVGDRVTITCRASQEISGYLSWLQQKPGGAIKRLIYAASTLDSGVPSRFSGSGSGSDYTLTISSLQPEDFATYYCLQYDSYPYTFGQGTKLEIKR"
  kon [M⁻¹ s⁻¹]: "2.79e+06"
- binder: "Sh24C05-41 (antibody, human IgG1, kappa, V domains shown, Humanized, human IgG1/kappa) VH: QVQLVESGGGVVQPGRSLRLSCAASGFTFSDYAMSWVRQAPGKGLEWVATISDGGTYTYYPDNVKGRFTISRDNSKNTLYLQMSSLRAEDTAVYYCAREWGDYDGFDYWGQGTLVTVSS VL: DIQLTQSPSFLSASVGDRVTITCRASQEISGYLSWYQQKPGKAPKLLIYAASTLDSGVPSRFSGSGSGTEFTLTISSLQPEDFATYYCLQYDSYPYTFGQGTKLEIKR"
  kon [M⁻¹ s⁻¹]: "1.81e+07"
- binder: "Sh24C05-19 (antibody, human IgG1, kappa, V domains shown, Humanized, human IgG1/kappa) VH: QVQLVESGGGLVKPGGSLRLSCAASGFTFSDYAMSWIRQAPGKGLEWVSTISDGGTYTYYPDNVKGRFTISRDNAKNSLYLQMNSLRAEDTAVYYCAREWGDYDGFDYWGQGTLVTVSS VL: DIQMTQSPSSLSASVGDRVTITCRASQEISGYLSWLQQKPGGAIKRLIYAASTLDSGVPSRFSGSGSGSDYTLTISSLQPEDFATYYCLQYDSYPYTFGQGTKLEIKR"
  kon [M⁻¹ s⁻¹]: "3e+06"
- binder: "Sh24C05-47 (antibody, human IgG1, kappa, V domains shown, Humanized, human IgG1/kappa) VH: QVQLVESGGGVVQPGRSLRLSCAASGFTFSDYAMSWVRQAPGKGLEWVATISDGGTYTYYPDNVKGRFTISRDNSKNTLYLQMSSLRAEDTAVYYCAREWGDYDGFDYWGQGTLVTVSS VL: DIQMTQSPSSLSASVGDRVTITCRASQEISGYLSWYQQKPGKAPKLLIYAASTLDSGVPSRFSGSGSGTDFTLTISSLQPEDFATYYCLQYDSYPYTFGQGTKLEIKR"
  kon [M⁻¹ s⁻¹]: "7.98e+06"
